- TEST_TARGET: human TLR7 (Homo sapiens, UniProt Q9NYK1)
- Sequence (Q9NYK1 27-1049): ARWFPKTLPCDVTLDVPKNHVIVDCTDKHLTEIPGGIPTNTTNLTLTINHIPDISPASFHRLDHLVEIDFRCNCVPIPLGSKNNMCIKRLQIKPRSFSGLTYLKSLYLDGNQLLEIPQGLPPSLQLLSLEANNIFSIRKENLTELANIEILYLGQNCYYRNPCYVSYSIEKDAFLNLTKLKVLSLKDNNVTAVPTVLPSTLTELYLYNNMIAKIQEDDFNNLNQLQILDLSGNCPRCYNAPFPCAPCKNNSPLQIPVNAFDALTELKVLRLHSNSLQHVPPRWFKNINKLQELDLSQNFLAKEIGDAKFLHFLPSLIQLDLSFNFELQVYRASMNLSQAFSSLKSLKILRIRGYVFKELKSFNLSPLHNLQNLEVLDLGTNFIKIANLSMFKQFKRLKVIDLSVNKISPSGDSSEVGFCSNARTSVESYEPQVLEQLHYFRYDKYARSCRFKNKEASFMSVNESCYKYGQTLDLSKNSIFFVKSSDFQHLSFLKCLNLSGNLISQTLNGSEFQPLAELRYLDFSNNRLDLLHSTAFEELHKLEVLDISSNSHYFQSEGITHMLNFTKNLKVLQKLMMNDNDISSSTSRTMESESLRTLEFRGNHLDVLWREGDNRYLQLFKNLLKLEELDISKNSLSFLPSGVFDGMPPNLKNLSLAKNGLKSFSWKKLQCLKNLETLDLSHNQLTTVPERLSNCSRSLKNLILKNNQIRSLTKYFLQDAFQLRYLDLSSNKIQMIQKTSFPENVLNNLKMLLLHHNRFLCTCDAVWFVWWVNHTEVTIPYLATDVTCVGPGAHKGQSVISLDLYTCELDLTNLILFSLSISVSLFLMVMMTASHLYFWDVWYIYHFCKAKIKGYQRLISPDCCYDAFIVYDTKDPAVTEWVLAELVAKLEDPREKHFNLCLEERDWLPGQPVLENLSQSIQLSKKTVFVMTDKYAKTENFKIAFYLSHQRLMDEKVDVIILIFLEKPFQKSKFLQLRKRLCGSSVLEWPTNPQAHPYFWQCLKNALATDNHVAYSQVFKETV
- TEST_SUMMARY: TLR7 inhibition reporter assay (HEK-Blue cells, secreted embryonic alkaline phosphatase reporter)
- TEST_CONTEXT: HEK-Blue cells overexpressing human TLR7, stimulated with gardiquimod 7.5 μM; read-out: TLR 7 IC50
ENDPOINT: IC50 (µM)

// solved cases for IC50 follow
{"COMPOUND": "CCn1c(-c2ccc(OC)c(OC)c2)nc2ccc(C3CCN(C4CCN(C(C)C)CC4)CC3)cc21 (single isomer, unassigned)", "UNIT": "µM", "IC50": 2.5}
{"COMPOUND": "CN(C)C1CCN(Cc2ccc(-c3ccc4nc(-c5ccccc5S(C)(=O)=O)n(C)c4c3)cc2)CC1", "UNIT": "µM", "IC50": 1}
{"COMPOUND": "COCCN1C2CCC1CC(N1CCC(c3cc(C)c4nc(-c5ccc(OC)c(OC)c5)n(C)c4c3)CC1)C2 (single isomer, unassigned) [Example 168]", "UNIT": "µM", "IC50": 14}
{"COMPOUND": "CCn1c(-c2ccc(OC)c(OC)c2)nc2cc(C3CCN(C4CCN(C(C)C)CC4)CC3)ccc21 (single isomer, unassigned)", "UNIT": "µM", "IC50": 2.7}
{"COMPOUND": "Cc1cc(C2CCN(C3CC4CCC(C3)N4CC3CC3)CC2)cc2c1nc(-c1ccc(S(C)(=O)=O)c(F)c1)n2C (centres unmarked)", "UNIT": "µM", "IC50": 2.2}

[I] Cn1c(-c2ccc(S(C)(=O)=O)cc2)nc2c(F)cc(C3CCN(C4CCN(C5COC5)CC4)CC3)cc21
[II] CC(C)N1C2CCC1CC(N1CCC(c3cc(F)c4nc(-c5ccc(S(C)(=O)=O)cc5)n(C5CC5)c4c3)CC1)C2 (single isomer, unassigned) [Example 117]
Inquiry: IC50 comparison. Which is larger, I or II ? Mark your answer with the label of the selected entry.
Reply text: I

[a] Cc1cc(C2CCN(C3CCCN(C4CCC4)CC3)CC2)cc2c1nc(-c1ccc(S(C)(=O)=O)cc1)n2C (single isomer, unassigned) [Example 111]
[b] COc1cc(-c2nc3c(C)cc(C4CCN(C5CC6CCC(C5)N6C5CCC5)CC4)cc3n2C)cn2ncnc12 (single isomer, unassigned)
Inquiry: Quick check, higher IC50 between a and b ? State the label of the item chosen.
Reply text: a
(a: 1.5 µM, b: 0.2 µM)

[A] COc1ccc(-c2nc3c(C)cc(C4CCN(C5CC6CCC(C5)N6C5CCOCC5)CC4)cc3n2C)cc1OC (single isomer, unassigned) [Example 166]
[B] Cc1cc(C2CCN(C3CC4CCC(C3)N4C3CCC3)CC2)cc2c1nc(-c1ccc(S(C)(=O)=O)cc1)n2C (single isomer, unassigned) [Example 153]
Inquiry: In the pair A and B , the larger recorded IC50 belongs to which? API: response body contains the label of the selected item.
Reply text: B
(B: 14.3 µM, A: 4.7 µM)

[A] CCn1c(-c2ccc(OC)c(OC)c2)nc2cc(C3CCN(C4CCN(CC(C)C)CC4)CC3)ccc21
[B] Cc1cc(C2CCN(C3CC4CCC(C3)N4CC(C)C)CC2)cc2c1nc(-c1ccc(S(C)(=O)=O)cc1)n2C (centres unmarked)
Inquiry: Of A and B , which one carries the higher reported IC50? Answer by quoting the chosen item's label.
Reply text: B

[1] COc1ccc(-c2nc3c(C)cc(C4CCN(C5CC6CCC(C5)N6CC(C)C)CC4)cc3n2C)cc1OC (single isomer, unassigned) [Example 18]
[2] COc1ccc(-c2nc3ccc(-c4ccc(CN5CCC(N(C)C)CC5)cc4)cc3n2C)cc1
Inquiry: Return label of the item with the larger IC50. Candidates: 1 , 2 . Select an item and report its label.
Reply text: 1

[1] CC(C)CN1CCC(N2CCC(c3cc(F)c4nc(-c5ccc(S(C)(=O)=O)cc5)n(C)c4c3)CC2)CC1
[2] Cn1c(-c2ccc(S(C)(=O)=O)cc2)nc2ccc(C3CCN(C4CC5CCC(C4)N5CC4CC4)CC3)c(F)c21 (centres unmarked) [Example 268]
[3] COc1cc(-c2nc3c(C)cc(C4CCN(C5CC6CCC(C5)N6C5CC5)CC4)cc3[nH]2)cn2ncnc12 (centres unmarked)
Inquiry: Hey, quick one: sort these by IC50, low to high? Rank the items, then write their labels in that order.
Reply text: 3, 1, 2
(3: 0.7 µM, 1: 9 µM, 2: 27.6 µM)

src = patent US12492188B2
